Taken from ChEMBL document CHEMBL1201862.

Test system: K562
Experiment: NCI tumour cell line growth inhibition, 48 h
Active and inactive are the calls of the source. Cut-off read from the data, not from the text of the source: active = GI50 up to about 1.1 µM and inactive = higher.
measurement name: GI50

C[C@H]1CC[P+](Cc2ccccc2)(c2ccccc2)C1 (stereo not given in full) | > 100 µM (inactive)
CC(/C=C/C=C\C=C\C=C(/C)C(=O)NC(C)CO)=C\C(C)C(O)/C(C)=C/C(C)CCc1ccccc1 (stereo not given) | 0.364 µM (active)
COCCCNc1nc(N)c(C#N)c(C#N)c1C#N | 2.72 µM (inactive)
C[n+]1c(-c2ccc(/C=N\N3CCN(/N=C/c4ccc(-c5cn6ccsc6[n+]5C)cc4)CC3)cc2)cn2ccsc21 | 11.8 µM (inactive)
O=[N+]([O-])c1ccc2c(c1)Cc1cc(/N=C/c3ccc4c(c3)OCO4)ccc1-2 | > 100 µM (inactive)
